tested on: peripheral blood mononuclear cells (PBMC), T cells; assay: ELISpot assay, IL-5 release (SFC) after stimulation with a-synuclein epitope pools; format: cell-based, human; settings: number of donors positive to the single peptide; second 'Pool Stimulated' section (from r296), 12 donors tested
metric: IL-g Peptide +

{"substance": "3521.0076 (PGKTKEGVLYVGSKT; listed as Homo sapiens)", "systemUnderTest": "peripheral blood mononuclear cells (PBMC), T cells", "metric": "IL-g Peptide +", "reported": 1}
{"substance": "3521.0056 (YEMPSEEGYQ; listed as Homo sapiens)", "systemUnderTest": "peripheral blood mononuclear cells (PBMC), T cells", "metric": "IL-g Peptide +", "reported": 1}
{"substance": "3521.0035 (SIAAATGFVK; listed as Homo sapiens)", "systemUnderTest": "peripheral blood mononuclear cells (PBMC), T cells", "metric": "IL-g Peptide +", "reported": 1}
{"substance": "3521.0085 (EGVVHGVATVAEKTK; listed as Homo sapiens)", "systemUnderTest": "peripheral blood mononuclear cells (PBMC), T cells", "metric": "IL-g Peptide +", "reported": 1}
{"substance": "3521.0055 (QEGILEDMPV; listed as Homo sapiens)", "systemUnderTest": "peripheral blood mononuclear cells (PBMC), T cells", "metric": "IL-g Peptide +", "reported": 1}
{"substance": "3521.0028 (MPSEEGYQDY; listed as Homo sapiens)", "systemUnderTest": "peripheral blood mononuclear cells (PBMC), T cells", "metric": "IL-g Peptide +", "reported": 0}
{"substance": "3521.0032 (GAVVTGVTAV; listed as Homo sapiens)", "systemUnderTest": "peripheral blood mononuclear cells (PBMC), T cells", "metric": "IL-g Peptide +", "reported": 0}
{"substance": "3521.0047 (IAAATGFVKK; listed as Homo sapiens)", "systemUnderTest": "peripheral blood mononuclear cells (PBMC), T cells", "metric": "IL-g Peptide +", "reported": 0}
{"substance": "3521.0036 (AGSIAAATGF; listed as Homo sapiens)", "systemUnderTest": "peripheral blood mononuclear cells (PBMC), T cells", "metric": "IL-g Peptide +", "reported": 0}
{"substance": "3521.0077 (KTKEGVLYVGSKTKK; listed as Homo sapiens)", "systemUnderTest": "peripheral blood mononuclear cells (PBMC), T cells", "metric": "IL-g Peptide +", "reported": 2}
{"substance": "3521.008 (VAAAEKTKQGVAEAA; listed as Homo sapiens)", "systemUnderTest": "peripheral blood mononuclear cells (PBMC), T cells", "metric": "IL-g Peptide +", "reported": 0}
{"substance": "3521.0066 (KAKEGVVAA; listed as Homo sapiens)", "systemUnderTest": "peripheral blood mononuclear cells (PBMC), T cells", "metric": "IL-g Peptide +", "reported": 0}
{"substance": "3521.0019 (APGKTKEGV; listed as Homo sapiens)", "systemUnderTest": "peripheral blood mononuclear cells (PBMC), T cells", "metric": "IL-g Peptide +", "reported": 0}
{"substance": "3521.0041 (EGILEDMPVD; listed as Homo sapiens)", "systemUnderTest": "peripheral blood mononuclear cells (PBMC), T cells", "metric": "IL-g Peptide +", "reported": 0}
{"substance": "3521.0054 (MPVDPDNEAY; listed as Homo sapiens)", "systemUnderTest": "peripheral blood mononuclear cells (PBMC), T cells", "metric": "IL-g Peptide +", "reported": 1}
{"substance": "3521.0023 (YEMPSEEGY; listed as Homo sapiens)", "systemUnderTest": "peripheral blood mononuclear cells (PBMC), T cells", "metric": "IL-g Peptide +", "reported": 1}
{"substance": "3521.0011 (QVTNVGGAV; listed as Homo sapiens)", "systemUnderTest": "peripheral blood mononuclear cells (PBMC), T cells", "metric": "IL-g Peptide +", "reported": 0}
{"substance": "3521.006 (VATVAEKTKE; listed as Homo sapiens)", "systemUnderTest": "peripheral blood mononuclear cells (PBMC), T cells", "metric": "IL-g Peptide +", "reported": 0}
{"substance": "3521.0022 (GSIAAATGF; listed as Homo sapiens)", "systemUnderTest": "peripheral blood mononuclear cells (PBMC), T cells", "metric": "IL-g Peptide +", "reported": 0}
{"substance": "3521.0072 (EGVVHGVTTVAEKTK; listed as Homo sapiens)", "systemUnderTest": "peripheral blood mononuclear cells (PBMC), T cells", "metric": "IL-g Peptide +", "reported": 0}
{"substance": "3521.0024 (DPDNEAYEM; listed as Homo sapiens)", "systemUnderTest": "peripheral blood mononuclear cells (PBMC), T cells", "metric": "IL-g Peptide +", "reported": 1}
{"substance": "3521.0003 (SIAAATGFV; listed as Homo sapiens)", "systemUnderTest": "peripheral blood mononuclear cells (PBMC), T cells", "metric": "IL-g Peptide +", "reported": 0}
